Each recorded value in this set is attributed to patent US10407409B2.

Each record here notes measured PHD Inhibition (pIC50).
- target desc: PHD2 enzyme (residues 181-417) (Homo sapiens (Human), UniProt Q9GZT9)
- Sequence (Q9GZT9 181-417): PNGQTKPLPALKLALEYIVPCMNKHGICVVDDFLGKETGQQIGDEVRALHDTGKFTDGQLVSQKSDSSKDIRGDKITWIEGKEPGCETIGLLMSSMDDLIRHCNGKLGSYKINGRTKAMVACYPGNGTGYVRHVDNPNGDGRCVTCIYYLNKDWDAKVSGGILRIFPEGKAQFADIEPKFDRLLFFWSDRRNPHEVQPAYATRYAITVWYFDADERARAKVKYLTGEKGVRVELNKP
- measurement protocol: Inhibition of PHD enzyme (LC/MS peptide hydroxylation assay)
- Assay type: biochemical
- measurement conditions: PHD2 (residues 181-417) 5 nM, 60 min pre-incubation; -log(IC50), IC50 molar
Where a name gives a salt, the structure may show the parent alone.
Form rule: numeric answer, no unit written next to it.

Worked cases, PHD Inhibition (pIC50) given:
INSERT INTO measurements (compound, assay_result) VALUES
  ('CNCCCNC(=O)c1ccc(-n2ncc(-c3ccc(C#N)cc3)c2O)nc1 [Example 272, hydrochloride]', 7.03),
  ('COCCCNC(=O)c1ccc(-n2ncc(-c3cc(F)c(C#N)cc3C)c2O)nc1', 8.48),
  ('Cc1cc(-n2ncc(-c3ccc(C#N)cc3)c2O)ncc1C(=O)NCCC1CCCOC1 (stereo not drawn)', 7.1),
  ('COCC1(NC(=O)c2ccc(-n3ncc(-c4ccc(C#N)cc4)c3O)nc2)CC1', 7.29),
  ('Cc1cc(C#N)ccc1-c1cnn(-c2ccc(C(=O)NCCCN3CCCCC3C)cn2)c1O (stereo not drawn)', 8),
  ('COc1cc(-c2cnn(-c3ccc(C(=O)N[C@H]4CC[C@H](O)CC4)cn3)c2O)ccn1', 7.46),
  ('Cc1cc(C#N)ccc1-c1cnn(-c2ccc(C(=O)NCC3CCC(F)(F)CC3)cn2)c1O', 8.2),
  ('CN(C)CCNC(=O)c1ccc(-n2ncc(-c3ccc(C#N)cc3)c2O)nc1', 6.32),
  ('Cc1c(-c2cnn(-c3ccc(C(=O)N4CC(N(C)C)C4)cn3)c2O)ccc(C#N)c1F', 8.40),
  ('Cc1cc(C#N)c(F)cc1-c1cnn(-c2ccc(C(=O)N3CCN(C)[C@@H](C)C3)cn2)c1O', 8.50);

Request: Quick one: give measured PHD Inhibition (pIC50) for N#Cc1ccc(-c2cnn(-c3ccc(C(=O)NCCC4CCCOC4)cn3)c2O)cc1 (stereo not drawn)
Result: 7.63

Request: Quick one: give measured PHD Inhibition (pIC50) for COc1cc(-c2cnn(-c3ccc(C(=O)NCC(C)C)cn3)c2O)ccn1
Result: 7.02

Request: Quick one: give measured PHD Inhibition (pIC50) for Cc1cc(C#N)ccc1-c1cnn(-c2ccc(C(=O)N3CCN(C(C)(C)C)CC3)cn2)c1O
Result: 8.15

Request: Quick one: give measured PHD Inhibition (pIC50) for CC[C@H](C)NC(=O)c1ccc(-n2ncc(-c3ccnc(OC)c3)c2O)nc1
Result: 7.09

Request: Quick one: give measured PHD Inhibition (pIC50) for COCCC1(NC(=O)c2ccc(-n3ncc(-c4ccc(C#N)cc4OC)c3O)nc2)CC1
Result: 8.1

Request: Quick one: give measured PHD Inhibition (pIC50) for COCCN1CCC(N(C)C(=O)c2ccc(-n3ncc(-c4ccc(C#N)cc4C)c3O)nc2)CC1
Result: 7.83

Request: Quick one: give measured PHD Inhibition (pIC50) for COc1cc(-c2cnn(-c3ccc(C(=O)N[C@@H](C)C4CCOCC4)cn3)c2O)ccn1
Result: 7.38

Request: Quick one: give measured PHD Inhibition (pIC50) for CC(C)N1CCC(NC(=O)c2ccc(-n3ncc(-c4ccc(C#N)cc4)c3O)nc2)CC1
Result: 6.91

Request: Quick one: give measured PHD Inhibition (pIC50) for COc1cc(-c2cnn(-c3ccc(C(=O)NC4CCN(C5CC5)CC4)cn3)c2O)ccn1
Result: 8

Request: Quick one: give measured PHD Inhibition (pIC50) for CN(C)CC1CCN(C(=O)c2ccc(-n3ncc(-c4ccc(C#N)cc4)c3O)nc2)C1 (stereo not drawn)
Result: 7.25

Request: Quick one: give measured PHD Inhibition (pIC50) for Cc1cc(C#N)ccc1-c1cnn(-c2ccc(C(=O)N3CCN(C)[C@H](C)C3)cn2)c1O
Result: 8.20

Request: Quick one: give measured PHD Inhibition (pIC50) for Cc1cc(C#N)ccc1-c1cnn(-c2ccc(C(=O)N3CCC[C@H](N4CCCC4)C3)cn2)c1O
Result: 7.94
